# Tested on: JEG-3
# Measurement Protocol: Primary qHTS to identify gynecologic anti-cancer compounds using libraries of approved drugs and bioactive compounds (AID 1345084); also: % is scaled to controls: 0 for no effect and ±100 for the full control effect; nearly all actives have a fitted effect of over 55% in size
# Condition Notes: Gynecologic cancer cell panel viability, ATPlite luminescence, 48 h; series mostly up to 57.5 µM
Inconclusive results are not listed. Active and inactive are the calls of the source. Calls follow the shape of the dose curve; as a rule, active = well fitted cell-killing curve with a large enough effect; inconclusive = small, poorly fitted or top-dose-only effect, or effect the other way; inactive = flat fitted curve, though single readings scatter.

| Molecule | activity change, negative = cytotoxicity |
| --- | --- |
| CC1CCC(=O)CC(O)C(O)CC(=O)O1 (stereo unspecified) | inactive |
| C/C=C(\C)C(=O)O[C@@H](C)[C@H]1CC[C@]2(O)C3CCC4C[C@@H](OC5CC(OC)C(OC6CC(OC)C(OC7CC(OC)C(OC8OC(C)C(OC9OC(CO)C(O)C(O)C9O)C(OC)C8O)C(C)O7)C(C)O6)C(C)O5)CC[C@]4(C)C3[C@H](O)[C@@H](O)[C@]12C (stereo partly specified) | -1.08% [at 6.55 µM] (inactive) |
| O=C(O)c1cc(O[C@@H]2O[C@H](CO[C@@H]3OC[C@@H](O)[C@H](O)[C@H]3O)[C@@H](O)[C@H](O)[C@H]2O)c2ccccc2c1O | inactive |
| C/C(=C/CO)CC[C@@H]1[C@@]2(C)CCC[C@](C)(C(=O)O)C2CC[C@@]1(C)O (stereo partly specified) | inactive |
| C[C@@H]1O[C@@H](O[C@H]2[C@H](O[C@H]3[C@H](O[C@H]4CC[C@@]5(C=O)C(CC[C@]6(C)C5CC=C5C7CC(C)(C)C[C@@H](O)[C@]7(C)CC[C@]56C)C4(C)C)O[C@H](C(=O)O)[C@@H](O)[C@@H]3O)OC[C@@H](O)[C@@H]2O)[C@H](O)[C@H](O)[C@H]1O (stereo partly specified) | 9.31% [at 11.6 µM] (inactive) |
| C/C=C/C=C/C=C/C(=O)O[C@@H]1[C@@H](OC)C2=C(C(=O)N(C(C)C(=O)O)C2)[C@@]2(C)CCCC(C)(C)[C@H]12 (stereo partly specified) | inactive |

---

# Tested on: HeLa
# Measurement Protocol: Primary qHTS to identify gynecologic anti-cancer compounds using libraries of approved drugs and bioactive compounds (AID 1345084); also: % is scaled to controls: 0 for no effect and ±100 for the full control effect; nearly all actives have a fitted effect of over 55% in size
# Condition Notes: Gynecologic cancer cell panel viability, ATPlite luminescence, 48 h; series mostly up to 57.5 µM
Records with an inconclusive call do not appear. Active and inactive are the calls of the source. Calls follow the shape of the dose curve; as a rule, active = well fitted cell-killing curve with a large enough effect; inconclusive = small, poorly fitted or top-dose-only effect, or effect the other way; inactive = flat fitted curve, though single readings scatter.

| Molecule | Study System | activity change, negative = cytotoxicity |
| --- | --- | --- |
| CC1(C(=O)O)CCCC2(C)C1CCC13CC(CCC21)C1(CO)OC31 (centres undefined) | HeLa | inactive |
| C=CC(C)(O)CO[C@@H]1O[C@H](CO)[C@@H](O)[C@H](O)[C@H]1O (some centres undefined) | HeLa | inactive |
| CC(=O)c1c(O)cc2cccc3c2c1CC(C)(O)O3 (centres undefined) | HeLa | inactive |
| C=C1C[C@]23C[C@H]1CC[C@H]2[C@]1(C)CCC[C@@]2(CO)C(=O)O[C@H]([C@H]21)[C@@H]3O | HeLa | inactive |
| CC1=C2C(=O)O[C@@H](c3ccoc3)[C@]2(C)CCC1 | HeLa | inactive |
| O=C(O)CCc1cccc(O[C@@H]2O[C@H](CO)[C@@H](O)[C@H](O)[C@H]2O)c1O | HeLa | inactive |
| CC1OC(OC2C(O)C(C(=O)O)OC(OC3CCC4(C)C(CCC5(C)C4C=CC4=C6CC(C)(C)CC(O)C6(C)CCC45C)C3(C)C)C2OC2OCC(O)C(O)C2O)C(O)C(O)C1O (centres undefined) | HeLa | -2.13% [at 11.6 µM] (inactive) |
| C[C@@H]1O[C@@H](O[C@H]2[C@H](OC(=O)[C@]34CCC(C)(C)C[C@H]3C3=CCC5[C@@]6(C)C[C@H](O)[C@H](O[C@@H]7O[C@H](CO)[C@@H](O[C@@H]8O[C@H](CO)[C@@H](O)[C@H](O)[C@H]8O)[C@H](O)[C@H]7O)[C@@](C)(CO)C6[C@H](O)C[C@@]5(C)[C@]3(C)C[C@H]4O)OC[C@H](O)[C@@H]2O)[C@H](O)[C@H](O)[C@H]1O[C@@H]1OC[C@@H](O)[C@H](O[C@@H]2OC[C@](O)(CO)[C@H]2O)[C@H]1O (some centres undefined) | HeLa | 5.03% [at 6.55 µM] (inactive) |
| COC1CC(=O)C23C(=O)NC(CC(C)C)C2C(C)C(C)=CC3/C=C(\C)CCC1O (centres undefined) | HeLa | inactive |

---

# Lookup of reported max response keyed by entry
# System: HaCat
# Measurement Protocol: Cytotoxic Profiling of Annotated Libraries Using Quantitative High-Throughput Screening (AID 1296008); also: % is scaled to controls: 0 for no effect and ±100 for the full control effect; nearly all actives have a fitted effect of over 60% in size
# Condition Notes: Five cell lines viability, CellTiter-Glo ATP luminescence, 48-72 h; active compounds read low
Records with an inconclusive call do not appear. Where a SMILES comes first, the peptide text is derived from it. The star is where a group is joined. AFC = O=c1cc(C(F)(F)F)c2ccc(N*)cc2o1
Readout Name: max response (%)

| Compound | Readout Name | Value Observed |
| --- | --- | --- |
| CC1=CC(=O)C2C(C)(C)CC(O)CC2(C)C1CO (centres undefined) | max response | -3.16 |
| CC[C@H](C)/C=C(C)/C=C/C(=O)Cc1cc(O)c(C)c(O)c1C=O | max response | 4.71 |
| N[C@@H](CC(=O)N1CCn2c(nnc2C(F)(F)F)C1)Cc1[nH]nc2c(F)c(F)ccc12 | max response | -2.51 |
| CC(=O)N[C@@H](CC(C)C)C(=O)N[C@@H](CCC(=O)O)C(=O)N[C@@H](CCC(=O)O)C(=O)N[C@@H](CC(=O)O)C(=O)Nc1ccc2c(C(F)(F)F)cc(=O)oc2c1 (Ac-LEED-{AFC}) | max response | -31 |
| CC1CCC2C(C)(C)C(O)CCC2(C)C12Cc1c(O)cc3c(c1O2)CN(C(CCC(N)=O)C(=O)O)C3=O (centres undefined) | max response | 2.99 |
| C=C1CCC2C(OC(=O)C2(O)COC(C)=O)C2C(=C)C(O)CC12 (centres undefined) | max response | -8.75 |
| CC1CCC2(C)C(CC(O)C(O)C23CO3)C1(C)CCC1=CC(O)OC1=O (centres undefined) | max response | 0.263 |
| C=CCc1ccc(O[C@@H]2O[C@H](CO[C@@H]3O[C@H](CO)[C@@H](O)[C@H](O)[C@H]3O)[C@@H](O)[C@H](O)[C@H]2O)c(O)c1 | max response | -10.9 |
| C=C1CC2C3(C)C(OC(C)=O)CC(=O)OC(C)(C)C3C(O)C(OC(C)=O)C2(C)C2C(=O)OC(C)C(=O)C12C (centres undefined) | max response | -15.7 |
| C=C1CCC2C(C)(C(=O)O)CC(O)CC2(C)C1CC/C(C)=C/C(=O)O (centres undefined) | max response | 3.69 |
| C[C@@H]1O[C@@H](O[C@H]2[C@H](O)[C@@H](O)[C@H](OC[C@H]3O[C@@H](OC(=O)[C@]45CCC(C)(C)C[C@H]4C4=CCC6[C@@]7(C)C[C@H](O)[C@H](O[C@@H]8O[C@H](CO)[C@@H](O)[C@H](O)[C@H]8O)[C@@](C)(C(=O)O)C7CC[C@@]6(C)[C@]4(C)CC5)[C@H](O[C@@H]4O[C@H](CO)[C@@H](O)[C@H](O)[C@H]4O)[C@@H](O)[C@@H]3O)O[C@@H]2CO)[C@H](O)[C@H](O)[C@H]1O (some centres undefined) | max response | 4.68 |
| CCn1cc(C2=NOC(C(=O)Nc3c(C)n(C)n(-c4ccccc4)c3=O)C2)c(C)n1 (centres undefined) | max response | -4.53 |
| COc1cc(-c2cccc(O)c2)cc2c1OCO2 | max response | 0.342 |
| CC1CCC23COC(=O)C2=CC(O)CC3C1(C)CCC1=CC(=O)OC1O (centres undefined) | max response | -0.369 |
| CC(=O)O[C@H](C[C@@H](C)[C@H]1C(=O)[C@H](O)[C@@]2(C)[C@@H]3CCC4C(C)(C)[C@@H](O[C@@H]5OC[C@H](O)[C@H](O)[C@H]5O)CC[C@@]45C[C@@]35CC[C@]12C)[C@@H]1OC1(C)C (some centres undefined) | max response | 2.98 |
| C=C(C)[C@@H](C)[C@H]1O[C@]23C[C@]4(CO2)C(CCC2[C@@]5(C)CC[C@H](O[C@@H]6OC[C@H](O)[C@H](O[C@@H]7O[C@H](CO)[C@@H](O)[C@H](O)[C@H]7O)[C@H]6O[C@@H]6O[C@@H](CO)[C@H](O)[C@H]6O)C(C)(C)C5CC[C@]24C)C3[C@@](C)(O)[C@@H]1OC(C)=O (some centres undefined) | max response | -4.68 |
| CC(/C=C/[C@]1(O)[C@@]2(C)CO[C@@]1(C)C[C@@H](O)C2)=C\C(=O)O[C@@H]1O[C@H](CO)[C@@H](O)[C@H](O)[C@H]1O | max response | -14.2 |
| CC1OC(OC2C(CO)OC(OCC3OC(OC(=O)C45CCC(C)(C)CC4C4=CCC6C7(C)CCC(OC8OC(C(=O)O)C(O)C(OC9OC(CO)C(O)C(O)C9O)C8O)C(C)(C)C7CCC6(C)C4(C)CC5)C(O)C(O)C3O)C(O)C2O)C(O)C(O)C1O (centres undefined) | max response | -1.82 |
| C[C@@H]1O[C@@H](O[C@H]2[C@H](OC(=O)C34CCC5(C)C(=CCC6C7(C)CC(O)C(O[C@@H]8O[C@H](C(=O)O)[C@@H](O)[C@H](O)[C@H]8O)C(C)(C(=O)O)C7CCC65C)C3CC(C)(C)CC4O)O[C@H](C)[C@@H](O)[C@@H]2O)[C@H](O)[C@@H](O[C@@H]2OC[C@](O)(CO)[C@H]2O[C@@H]2O[C@H](CO)[C@@H](O)[C@H](O)[C@H]2O)[C@H]1O (some centres undefined) | max response | -8.41 |
| O=S(=O)(Nc1ccc(C(O)(C(F)(F)F)C(F)(F)F)cc1)c1cccs1 | max response | 2.6 |
| C[C@@H]1CCC2C(C)(C)[C@H](O)CC[C@]2(C)[C@@]12Cc1c(O)cc3c(c1O2)CN(CCO)C3=O (some centres undefined) | max response | 4.59 |
| C[C@@H]1O[C@@H](O[C@H]2[C@H](O[C@H]3[C@H](O[C@H]4CC[C@@]5(C=O)C(CC[C@]6(C)C5CC=C5C7CC(C)(C)C[C@@H](O)[C@]7(C)CC[C@]56C)C4(C)C)O[C@H](C(=O)O)[C@@H](O)[C@@H]3O)OC[C@@H](O)[C@@H]2O)[C@H](O)[C@H](O)[C@H]1O (some centres undefined) | max response | -16.7 |
| CC(CO[C@@H]1O[C@H](COC(=O)/C=C/c2ccc(O)c(O)c2)[C@@H](O)[C@H](O)[C@H]1O)C1(O)COC(=O)C1 (some centres undefined) | max response | 3.48 |
| Cc1coc2c1CC1OC1(C)CCC1OC1(C)C2 (centres undefined) | max response | 3.75 |
